- Tested on: MALME-3M melanoma
- EXPERIMENT DESCRIPTION: NCI-60 one-dose screen, 48 h (100 = growth as untreated, 0 = no growth, -100 = all killed)
- CONDITION NOTES: 10 µM unless noted
About 83,000 compounds went through this panel and 20% of them were active in at least one assay; those are over-represented in the sample as a whole.
METRIC NAME: growth (%)
Quick reminder: number only, in %, skip the unit.

Recorded results for 3 molecules are shown here.
{"columns": ["MOLECULE", "READING"],
 "data": [
  ["COc1ccc(S(=O)(=O)N(Cc2ccc3c(c2)C=CC(C)(C)O3)c2ccccc2)cc1OC", 83.4],
  ["COC(=O)[C@@H](C)C[C@H](Cc1ccccc1)NC(=O)c1csc([C@@H](C[C@H](C(C)C)N(C)C(=O)[C@H](C)NC(=O)[C@H]2CCCN2C)OC(C)=O)n1", 56.2],
  ["CS(=O)(=O)CCN1CC2CCCC(C2)C1", 111]
]}

Dear colleague, I am looking for the recorded growth of the following molecule: C=C(C)[C@@]12OC3(/C=C/C=C/CCCCC)O[C@@H]1[C@@H]1[C@@H]4O[C@]4(CO)[C@@H](O)[C@]4(O)C(=O)C(C)=C[C@H]4[C@@]1(O3)[C@H](C)[C@H]2OC(=O)c1ccccc1
88.3

Please give the result for CC(C)(C)C(=O)OCOP(=O)(OCOC(=O)C(C)(C)C)C1CCCN(O)C1=O (stereo unspecified) too.
12.3

Please give the result for Oc1c(CCl)cc(Cl)cc1CCl too.
110

====

- Tested on: RXF 393 renal
- EXPERIMENT DESCRIPTION: NCI-60 one-dose screen, 48 h
- CONDITION NOTES: 10 µM unless noted
Compounds without any hit were thinned out: in the full panel of roughly 83,000, 20% have a hit. Active and inactive are the calls of the source. How the source made its calls: active means growth percent below 10; inactive means the rest.
Your reply should match one of these outcome classes. active, inactive

Dear colleague, could you share the recorded outcome for COC(=O)N[C@H]1CCc2c(Br)c(OC)c(OC)c(OC)c2-c2ccc(SC)c(=O)cc21 when you have a moment?
inactive

Please give the result for CCCCCCCC[N+](C)(CCCCCCCC)CCCCCCCC too.
active

Please give the result for Cc1cc(C)cc(Nc2nc3c(s2)CC[C@@]2(C)C3=CC[C@@H]3[C@@H]2CC[C@]2(C)C(=O)CC[C@@H]32)c1 too.
active

====

- Tested on: OVCAR-3 ovarian
- EXPERIMENT DESCRIPTION: NCI-60 one-dose screen, 48 h (100 = growth as untreated, 0 = no growth, -100 = all killed)
- CONDITION NOTES: 10 µM unless noted
The panel holds about 83,000 compounds, 20% with a hit somewhere; the sample as a whole holds those more often.
METRIC NAME: growth (%)
Quick reminder: number only, in %, skip the unit.

Recorded results for 6 compounds are shown here.
{"columns": ["COMPOUND", "READING"],
 "data": [
  ["CC12CC(=O)C3(SC#N)C(CCC4=CC(=O)CCC43C)C1CCC2=O (stereo not drawn)", 42.1],
  ["O=C(CCCC1CCCCC1)OCC(Cl)(Cl)Cl", 104],
  ["CCCCCCCC(=O)OCC(=O)[C@]1(O)Cc2c(O)c3c(c(O)c2[C@@H](OC2CC(N)C(O)C(C)O2)C1)C(=O)c1c(OC)cccc1C3=O (stereo partly drawn)", -100],
  ["O=C(Nc1ccc(Br)cc1)c1cc(Br)cc(Br)c1O", 32.9],
  ["CCOC(=O)c1c(C)n(Cc2ccccc2)c2cc(CN(C)C)c(O)cc12", 79.4],
  ["CCN(CC)CCOC(=O)C(OC(C)C)(c1ccccc1)c1ccccc1", 97.3]
]}

Dear colleague, I am looking for the recorded growth of the following compound: C1CCC([PH+](C2CCCCC2)C2CCCCC2[PH+](C2CCCCC2)C2CCCCC2)CC1.[Au].[CH-]1CCCCC1CC1CCCC[N-]1 (stereo not drawn)
-86.5

Please give the result for Clc1cccc(NCOOC2(OOCNc3cccc(Cl)c3)CCCCC2)c1 too.
79.7

Please give the result for CC[C@H](C)[C@H](NC(=O)[C@H]1CCCCN1C)C(=O)N(C)[C@H](CCc1nc(C(=O)N[C@@H](Cc2ccccc2)C[C@H](C)C(=O)OC)cs1)C(C)C too.
-18.6

Please give the result for O=C(O)c1ccc([S-])cc1.[Au+].c1ccc(CN2[CH-]N(Cc3ccccc3)C(c3ccccc3)=C2c2ccccc2)cc1 too.
-95.2

Please give the result for ClCCN(CCCl)Cc1ccc(Nc2ccnc3cc(Cl)ccc23)cc1 too.
39.7

Please give the result for CC(C)[C@@H]1NC(=O)[C@]2(C)CSC(=N2)c2csc(n2)CNC(=O)C[C@@H](/C=C/CCS)OC1=O too.
-21.3

Please give the result for CCOC(=O)[C@@H](C)C[C@H](Cc1ccccc1)NC(=O)c1csc([C@@H](C[C@H](C(C)C)N(C)C(=O)[C@H](CC)NC(=O)[C@H]2CCCCN2C)OC(C)=O)n1 too.
-6.1

Please give the result for O=C1Nc2ccccc2C2c3cccn3-c3ccccc3CN12 (stereo not drawn) too.
41.7
